test system: bicucculine-induced lethality in mice; experiment: Antagonism of bicucculine-induced lethality in mice; format: in vivo; conditions: Mus musculus, po; drugs given orally 1 h before bicucculine (0.6 mg/kg, i.v.); protection of 50% of mice from lethality
metric: log10 ED50 (log10 of the value in mg/kg)
Scale type: logarithmic (base 10). Underlying ED50 unit: mg/kg.

Guide cases for log10 ED50, answers given:
                                   molecule  quantitative_result
0  C[C@H](NCc1ccc(OCc2cccc(F)c2)cc1)C(N)=O [FCE 26743]                 1.46
1  CNC(=O)[C@H](CO)NCc1ccc(OCc2ccccc2)cc1 [FCE 26358]                 1.20
2  CNC(=O)[C@H](CO)NCc1ccc(OCc2cccc(F)c2)cc1 [FCE 26650]                 1.40
3  C[C@@H](NCc1ccc(OCc2cccc(Cl)c2)cc1)C(N)=O [FCE 26312]                 1.70
4  C[C@H](NCc1ccc(OCc2ccccc2)cc1)C(N)=O [FCE 26550]                 1.18
5  C[C@H](NCc1ccc(Cc2ccccc2)cc1)C(N)=O [FCE 26723, (S)-2-(4-benzylbenzyl)aminopropionamide]                 1.20
6  C[C@@H](C(N)=O)N(C)Cc1ccc(Cc2ccccc2)cc1 [FCE 26762]                 1.73
7  C[C@H](NCc1ccc(NCc2ccccc2)cc1)C(N)=O [FCE 26749]                 0.95
8  NC(=O)CNCc1ccc(OCc2cccc(Cl)c2)cc1 [FCE 25989]                 2.28
9  C[C@H](NCc1ccc(OCc2ccccc2Cl)cc1)C(N)=O [FCE 26700]                 1.23

# input Report log10 ED50 for CNC(=O)[C@H](CO)NCc1ccc(OCc2ccccc2Cl)cc1 [FCE 26502] please.
# output 1.43

# input Report log10 ED50 for CCCC(CCC)C(=O)O [Valproate, reference compound] please.
# output 2.60

# input Report log10 ED50 for CNC(=O)[C@H](CO)NCc1ccc(OCc2ccccc2F)cc1 [FCE 26649] please.
# output 1.08

---

target: MAO type B (Rattus norvegicus, UniProt P19643)
Sequence (P19643 whole entry): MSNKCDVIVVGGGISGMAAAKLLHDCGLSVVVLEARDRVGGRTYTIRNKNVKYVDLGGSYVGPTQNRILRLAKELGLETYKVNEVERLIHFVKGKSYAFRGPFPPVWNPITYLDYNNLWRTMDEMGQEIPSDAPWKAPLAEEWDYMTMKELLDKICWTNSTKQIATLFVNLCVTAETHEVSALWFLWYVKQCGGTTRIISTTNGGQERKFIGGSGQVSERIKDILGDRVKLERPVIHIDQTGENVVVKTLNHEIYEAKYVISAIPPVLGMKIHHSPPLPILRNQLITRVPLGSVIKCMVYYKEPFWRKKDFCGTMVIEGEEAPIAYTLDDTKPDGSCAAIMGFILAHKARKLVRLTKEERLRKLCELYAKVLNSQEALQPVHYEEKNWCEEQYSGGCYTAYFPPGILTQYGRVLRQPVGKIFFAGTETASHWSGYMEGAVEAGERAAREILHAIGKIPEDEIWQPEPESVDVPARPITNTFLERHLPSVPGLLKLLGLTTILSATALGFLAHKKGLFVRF
metric: pIC50
Value format note: pIC50 is -log10 of concentration (mol/L); just state the number.

# input Report pIC50 for NC(=O)CNCc1ccc(OCc2cccc(Cl)c2)cc1 please.
# output 6.70
